System: K-562 leukemia
Experiment: NCI-60 one-dose screen, 48 h
Settings: 10 µM unless noted
Compounds without any hit were thinned out: in the full panel of roughly 83,000, 20% have a hit. The source made the active and inactive calls. How the source made its calls: active means growth percent below 10; inactive means the rest.
Possible outcomes: active, inactive

1) CC1=C2C(=O)[C@H]3[C@@H](CC=C4C[C@@H](O)CC[C@@]43C)[C@@H]2CC[C@]12O[C@@H]1C[C@H](C)CN[C@H]1[C@H]2C: inactive
2) CC1=C(CO)C2=C(C)C3(CC3)[C@@](C)(O)C(=O)C2=C1: inactive
3) CC[C@@]1(O)C[C@H](OC2CC(N(C)C)C(O)C(C)O2)c2c(O)c3c(c(O)c2[C@H]1OC1CC(N(C)C)C(O)C(C)O1)C(=O)c1cccc(O)c1C3=O (some centres undefined): active
4) Cc1c(N)nc([C@H](CC(N)=O)NC[C@H](N)C(N)=O)nc1C(=O)N[C@H](C(=O)N[C@H](C)[C@@H](O)[C@H](C)C(=O)N[C@H](C(=O)NCCc1nc(-c2nc(C(=O)NCCC[S+](C)C)cs2)cs1)[C@@H](C)O)C(OC1OC(CO)C(O)C(O)C1OC1OC(CO)C(O)C(OC(N)=O)C1O)c1cnc[nH]1 (some centres undefined): inactive
5) O=C1c2ccccc2C(=O)C(Cl)C1Cl (centres undefined): active
6) CC[C@](O)(C(=O)O)c1cc2n(c(=O)c1CO)Cc1cc3ccccc3nc1-2: active
7) CN1CCN(c2ccc([N+](=O)[O-])c3no[n+]([O-])c23)CC1: active
8) C[C@]12CC[C@H](O)CC1=CC[C@@H]1[C@@H]2CC[C@]2(C)C(=O)CC[C@@H]12: inactive
9) CC[C@@]1(O)C(=O)OCc2c1cc1n(c2=O)Cc2cc3ccccc3nc2-1: active
10) COc1ccc(OC)c(/C=C/[N+](=O)[O-])c1: active
11) C[C@H]1CCC/C=C/[C@@H]2C[C@H](O)C[C@H]2[C@H](O)/C=C/C(=O)O1: active
12) Cc1cc(N=Nc2ccccc2C)ccc1N: inactive
13) CCCCCCCCCCCC1CCCC(C)N1 (centres undefined): active
14) Oc1cc[c]([Hg][Cl])cc1: inactive
